# Measured On: Prostaglandin D2 receptor (Mus musculus)
# Sequence (P70263 whole entry): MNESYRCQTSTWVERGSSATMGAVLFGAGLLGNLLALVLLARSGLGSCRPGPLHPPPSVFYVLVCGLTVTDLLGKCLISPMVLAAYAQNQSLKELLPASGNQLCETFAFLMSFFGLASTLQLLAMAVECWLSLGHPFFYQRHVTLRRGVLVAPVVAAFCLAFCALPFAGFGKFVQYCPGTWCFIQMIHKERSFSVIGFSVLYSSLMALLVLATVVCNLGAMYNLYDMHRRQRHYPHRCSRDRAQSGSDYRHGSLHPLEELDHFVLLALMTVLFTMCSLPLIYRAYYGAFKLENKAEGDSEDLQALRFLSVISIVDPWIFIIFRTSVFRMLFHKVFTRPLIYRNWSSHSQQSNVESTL
# Assay Overview: Displacement of [3H]-PGD2 from mouse DP receptor expressed in CHO cells after 20 mins by liquid scintillation counting
pKi: −log10 of the molar value.
Assay Readout: pKi

Use the examples below as a reference point.
INSERT INTO results (molecule_smiles, assay_readout, result_value) VALUES
  ('Cc1cc(OC[C@@H]2CN(C)c3ccccc3O2)ccc1C(=O)n1c(C)c(CC(=O)O)c2ccccc21', 'pKi', 8.46),
  ('CCN1c2ccccc2C[C@@H]1COc1ccc(C(=O)n2c(C)c(CC(=O)O)c3ccccc32)c(C)c1', 'pKi', 8.32),
  ('Cc1c(OC[C@@H]2CN(C)c3ccccc3O2)ccc(C(=O)n2c(C)c(CC(=O)O)c3ccccc32)c1C', 'pKi', 6.42),
  ('Cc1ccc2c(c1)c(CC(=O)O)c(C)n2C(=O)c1ccc(OC[C@@H]2CN(C)c3ccccc3O2)cc1', 'pKi', 7.55),
  ('Cc1cc(C(=O)n2c(C)c(CC(=O)O)c3ccccc32)c(C)cc1OC[C@@H]1CN(C)c2ccccc2O1', 'pKi', 6.44);

P: Cc1c(CC(=O)O)c2ccccc2n1C(=O)c1ccc(OC[C@@H]2CN(C)c3ccccc3O2)c(Cl)c1
Q: Cc1cc(C(=O)n2c(C)c(CC(=O)O)c3cc(F)ccc32)ccc1OC[C@@H]1CN(C)c2ccccc2O1
R: Cc1cc(C(=O)n2c(C)c(CC(=O)O)c3ccccc32)ccc1OC[C@@H]1CN(C)c2ccccc2O1
Sort low-to-high on pKi, please. Response field: labels, in requested order. P, R, Q
(P: 6.42, R: 6.85, Q: 7.23)
